target-system: USP14 (Homo sapiens (Human), UniProt P54578)
Sequence (P54578 whole entry, looked up): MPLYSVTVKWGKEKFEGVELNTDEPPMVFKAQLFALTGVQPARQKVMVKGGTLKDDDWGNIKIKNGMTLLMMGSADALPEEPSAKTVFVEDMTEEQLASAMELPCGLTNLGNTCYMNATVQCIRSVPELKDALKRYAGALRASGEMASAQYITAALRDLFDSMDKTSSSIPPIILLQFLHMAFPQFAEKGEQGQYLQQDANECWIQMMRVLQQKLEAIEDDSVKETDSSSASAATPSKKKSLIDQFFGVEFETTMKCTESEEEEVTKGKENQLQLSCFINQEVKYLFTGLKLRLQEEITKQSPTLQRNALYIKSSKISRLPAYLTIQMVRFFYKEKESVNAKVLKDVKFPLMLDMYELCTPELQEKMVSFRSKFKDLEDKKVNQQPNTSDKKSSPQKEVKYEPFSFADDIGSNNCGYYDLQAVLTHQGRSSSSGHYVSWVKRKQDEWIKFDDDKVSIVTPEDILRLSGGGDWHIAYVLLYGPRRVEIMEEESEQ
protocol: Usp14 inhibition assay (Example 57B, B-series compounds)
Format: biochemical
experimental-conditions: IC50 class; average value from a minimum of two experimental determinations
# Lookup of reported IC50 keyed by entry

Cc1c(C(=O)CN2C3CCC2[C@@H](O)C3)c(Cl)c(Cl)n1-c1ccc(C#N)cc1 (mixture of isomers) [Example 97B] = 50 to 500 nM
Cc1c(C(=O)CN2C3CCC2[C@@H](O)C3)cc(COCCC#N)n1-c1ccc(C#N)cc1 (mixture of isomers) [Example 5B] = > 500 nM
Cc1c(C(=O)CN2[C@@H]3CC[C@H]2[C@@H](C)C3)cc(C#N)n1-c1ccc(C#N)cc1 (racemic) [Example 136B] = < 50 nM
Cc1c(F)c(C(=O)CN2C3CCC2[C@@H](O)C3)c(C)n1-c1ccc(C#N)c(F)c1 (mixture of isomers) [Example 120B] = < 50 nM
Cc1c(CCCCS(C)(=O)=O)c(C(=O)CN2C3CCC2[C@@H](O)C3)c(C)n1-c1ccc(C#N)cc1 (mixture of isomers) [Example 19B] = > 500 nM
Cc1c(C(=O)CN2[C@H]3CC[C@@H]2[C@@H](C)C3)cc(CC2COC2)n1-c1ccc(C#N)cc1 (racemic) [Example 56B] = 50 to 500 nM
Cc1c(C(=O)CN2[C@@H]3CC[C@H]2[C@@H](O)C3)cc(CCCCC2COC2)n1-c1ccc(C#N)cc1 (racemic) [Example 23B] = < 50 nM
Cc1c(F)c(C(=O)CN2C3CC4CC2CC(C3)O4)c(C)n1-c1ccc(C#N)c(F)c1 (racemic) [Example 116B] = 50 to 500 nM

Please state recorded IC50 (tested on USP14 (Homo sapiens (Human), UniProt P54578)) of Cc1cc(C(=O)CN2C3CCC2[C@@H](O)C3)c(C)n1-c1ccc(C#N)c(F)c1F (mixture of isomers) [Example 99B]
> 500 nM

---

target-system: UniProt P54578
protocol: Usp14 inhibition assay (Example 57B, B-series compounds)
Format: biochemical
experimental-conditions: IC50 class; average value from a minimum of two experimental determinations
pIC50: −log10 of the molar value.
quantity-measured: pIC50

GET /values?readout=pIC50&item= Cc1cc(C(=O)CN2[C@@H]3CC[C@H]2[C@@H](C(F)(F)F)C3)c(C)n1-c1ccc(C#N)cc1 (racemic) [Example 102B]
< 6.30

GET /values?readout=pIC50&item= COCCCCc1cc(C(=O)CN2[C@H]3CC[C@@H]2[C@H](O)C3)c(C)n1-c1ccc(C#N)cc1 (stereo in doubt) [Example 13B]
> 7.30

---

target-system: USP14 (Homo sapiens (Human))
protocol: Usp14 inhibition assay (Example 57B, B-series compounds)
Type: biochemical
experimental-conditions: IC50 class; average value from a minimum of two experimental determinations
pIC50: −log10 of the molar value.
# Lookup of reported pIC50 keyed by entry

Would you please look over these solved cases?
Cc1c(C(=O)CN2C3CCC2[C@@H](O)C3)cc(/C=C/CCC#N)n1-c1ccc(C#N)cc1 (mixture of isomers) [Example 20B] = > 7.30
Cc1nc(Cc2c(Br)c(C(=O)CN3C4CCC3[C@@H](O)C4)c(C)n2-c2ccc(C#N)cc2)cs1 (mixture of isomers) [Example 129B] = 6.30 to 7.30

GET /values?readout=pIC50&item= CO[C@H]1C[C@H]2CC[C@@H]1N2CC(=O)c1cc(C)n(-c2ccc(C#N)cc2)c1C (racemic) [Example 70B]
6.30 to 7.30

GET /values?readout=pIC50&item= Cc1c(C(=O)CN2C3CC4CC2CC(C3)O4)cc(C#CCCC#N)n1-c1ccc(C#N)cc1 [Example 21B]
6.30 to 7.30

GET /values?readout=pIC50&item= Cc1nccn1C/C=C/c1cc(C(=O)CN2C3CCC2[C@@H](O)C3)c(C)n1-c1ccc(C#N)cc1 (mixture of isomers) [Example 6B]
> 7.30

GET /values?readout=pIC50&item= Cc1c(C(=O)CN2C3CCC2CC3)cc(CCCCS(C)(=O)=O)n1-c1ccc(Cl)cc1 [Example 18B]
6.30 to 7.30

GET /values?readout=pIC50&item= Cc1c(C(=O)CN2C3CCC2C(O)C3)cc([C@H](C)C2CCC2)n1-c1ccc(C#N)cc1 (stereo in doubt) [Example 151B]
< 6.30

---

# Lookup of reported pIC50 keyed by entry
target-system: USP14 (Homo sapiens (Human), UniProt P54578)
protocol: Usp14 inhibition assay (Example 57B, B-series compounds)
Type: biochemical
experimental-conditions: IC50 class; average value from a minimum of two experimental determinations
pIC50: −log10 of the molar value.

Please state recorded pIC50 (tested on USP14 (Homo sapiens (Human), UniProt P54578)) of Cc1nc(-c2cc(C(=O)CN3[C@@H]4CC[C@H]3[C@@H](O)C4)c(C)n2-c2ccc(C#N)cc2)cs1 (racemic) [Example 144B]
6.30 to 7.30

Please state recorded pIC50 (tested on USP14 (Homo sapiens (Human), UniProt P54578)) of Cc1cc(C(=O)CN2C3CCC2(C(C)O)CC3)c(C)n1-c1ccc(C#N)cc1 (racemic) [Example 143B]
6.30 to 7.30

Please state recorded pIC50 (tested on USP14 (Homo sapiens (Human), UniProt P54578)) of Cc1cc(C(=O)CN2C3CCC2CC3)c(C)n1-c1ccc(C#N)cc1 [Example 63B]
< 6.30

Please state recorded pIC50 (tested on USP14 (Homo sapiens (Human), UniProt P54578)) of Cc1c(C(=O)CN2C3CCC2[C@@H](O)C3)cc(C#CC2COC2)n1-c1ccc(C#N)cc1 (mixture of isomers) [Example 57B]
6.30 to 7.30

Please state recorded pIC50 (tested on USP14 (Homo sapiens (Human), UniProt P54578)) of Cc1c(C(=O)CN2C3CCC2[C@@H](O)C3)cc(CCCOC(F)(F)F)n1-c1ccc(C#N)cc1 (mixture of isomers) [Example 155B]
6.30 to 7.30

Please state recorded pIC50 (tested on USP14 (Homo sapiens (Human), UniProt P54578)) of Cc1cc(C(=O)CN2[C@@H]3CC[C@H]2[C@](O)(C(C)(C)C)C3)c(C)n1-c1ccc(C#N)cc1 (racemic) [Example 72B]
< 6.30

Please state recorded pIC50 (tested on USP14 (Homo sapiens (Human), UniProt P54578)) of Cc1cc(C(=O)CN2C3CCC2[C@@H](CC(C)(C)O)C3)c(C)n1-c1ccc(C#N)cc1 (mixture of isomers) [Example 148B]
< 6.30

---

target-system: USP14 (Homo sapiens (Human), UniProt P54578)
protocol: Usp14 inhibition assay (Example 57B, B-series compounds)
Format: biochemical
experimental-conditions: IC50 class; average value from a minimum of two experimental determinations
quantity-measured: IC50

Cc1c(C(=O)CN2C3CCC2CC3)cc(CC2COC2)n1-c1ccc(C#N)cc1 [Example 54B] = < 50 nM

Please state recorded IC50 (tested on USP14 (Homo sapiens (Human), UniProt P54578)) of Cc1c(C(=O)CN2[C@@H]3CC[C@H]2[C@@H](O)C3)cc(-c2nccs2)n1-c1ccc(C#N)cc1 (racemic) [Example 146B]
> 500 nM

Please state recorded IC50 (tested on USP14 (Homo sapiens (Human), UniProt P54578)) of Cc1c(C(=O)CN2[C@@H]3CC[C@H]2[C@@H](O)C3)cc(CC2CCC2)n1-c1ccc(C#N)cc1 (racemic) [Example 133B]
< 50 nM

Please state recorded IC50 (tested on USP14 (Homo sapiens (Human), UniProt P54578)) of Cc1c(F)c(C(=O)CN2[C@@H]3CC[C@H]2[C@@H](C(F)(F)F)C3)c(C)n1-c1ccc(C#N)cc1 (racemic) [Example 103B]
> 500 nM

---

# Lookup of reported pIC50 keyed by entry
target-system: USP14 (Homo sapiens (Human), UniProt P54578)
protocol: Usp14 inhibition assay (Example 5A, A-series compounds)
Format: biochemical
experimental-conditions: average value from a minimum of two experimental determinations; read-out: Usp14 IC50 Category
pIC50: −log10 of the molar value.

Cc1c(C(=O)CN2C3CCC2CC3)c2ccc(CC3COC3)cc2n1-c1ccc(Cl)cc1 [Example 11A] = > 7.30
Cc1c(C(=O)CN2C3CCC2CC(O)C3)c2ccc(CCS(C)(=O)=O)cc2n1-c1ccc(Cl)cc1 (stereo not drawn) = > 7.30
Cc1c(C(=O)CN2C3CCC2CC3)c2ccc(CCS(=O)(=O)C3CC3)cc2n1-c1ccc(Cl)cc1 [Example 16A] = > 7.30
Cc1c(C(=O)CN2[C@@H]3CC[C@H]2C[C@](O)(C(C)C)C3)c2ccc(CCC#N)cc2n1-c1ccc(Cl)cc1 [Example 32A] = 7.00 to 7.30
CO[C@H]1CC2CCC1N2CC(=O)c1c(C)n(-c2ccc(Cl)cc2)c2cc(CCC#N)ccc12 (mixture of isomers) [Example 15A] = > 7.30

GET /values?readout=pIC50&item= Cc1c(C(=O)CN2[C@@H]3CC[C@H]2C[C@H](O)C3)c2ccc(CCS(=O)(=O)C3CC3)cc2n1-c1ccc(Cl)cc1 [Example 24A]
7.00 to 7.30

GET /values?readout=pIC50&item= Cc1c(C(=O)CN2CCC(O)CC2)c2ccc(CC3COC3)cc2n1-c1ccc(Cl)cc1 [Example 14A]
7.00 to 7.30

GET /values?readout=pIC50&item= Cc1c(C(=O)CN2C3CCC2CC(O)C3)c2ccc(CCC#N)cc2n1-c1ccc(Cl)cc1 (stereo not drawn) [Example 20A]
< 7.00

GET /values?readout=pIC50&item= Cc1c(C(=O)CN2C3CCC2CC3)c2ccc(CC#N)cc2n1-c1ccc(Cl)cc1 [Example 30A]
7.00 to 7.30

GET /values?readout=pIC50&item= Cc1c(C(=O)CN2[C@@H]3CCC[C@H]2CC3)c2ccc(CCS(C)(=O)=O)cc2n1-c1ccc(Cl)cc1
> 7.30

GET /values?readout=pIC50&item= Cc1c(C(=O)CN2[C@@H]3CC[C@H]2C[C@H](O)C3)c2ccc(CCC#N)cc2n1-c1ccc(Cl)cc1 [Example 21A]
7.00 to 7.30
